target: PDE10 from rat striatum (Rattus norvegicus); construct: 0.5 g of the isolated and frozen striatum was homogenised; from tissue; host or cells: striatum of male Wistar rats, anion-exchange FPLC fractions; assay: Inhibition of PDE10 from rat striatum; assay type: biochemical; details: rat striatum preparation, 0.1 μM [3H]-cAMP, 37° C., 30 minutes; read-out: Inhibition of PDE10 from rat IC50
Sequence (Q9QYJ6 whole entry): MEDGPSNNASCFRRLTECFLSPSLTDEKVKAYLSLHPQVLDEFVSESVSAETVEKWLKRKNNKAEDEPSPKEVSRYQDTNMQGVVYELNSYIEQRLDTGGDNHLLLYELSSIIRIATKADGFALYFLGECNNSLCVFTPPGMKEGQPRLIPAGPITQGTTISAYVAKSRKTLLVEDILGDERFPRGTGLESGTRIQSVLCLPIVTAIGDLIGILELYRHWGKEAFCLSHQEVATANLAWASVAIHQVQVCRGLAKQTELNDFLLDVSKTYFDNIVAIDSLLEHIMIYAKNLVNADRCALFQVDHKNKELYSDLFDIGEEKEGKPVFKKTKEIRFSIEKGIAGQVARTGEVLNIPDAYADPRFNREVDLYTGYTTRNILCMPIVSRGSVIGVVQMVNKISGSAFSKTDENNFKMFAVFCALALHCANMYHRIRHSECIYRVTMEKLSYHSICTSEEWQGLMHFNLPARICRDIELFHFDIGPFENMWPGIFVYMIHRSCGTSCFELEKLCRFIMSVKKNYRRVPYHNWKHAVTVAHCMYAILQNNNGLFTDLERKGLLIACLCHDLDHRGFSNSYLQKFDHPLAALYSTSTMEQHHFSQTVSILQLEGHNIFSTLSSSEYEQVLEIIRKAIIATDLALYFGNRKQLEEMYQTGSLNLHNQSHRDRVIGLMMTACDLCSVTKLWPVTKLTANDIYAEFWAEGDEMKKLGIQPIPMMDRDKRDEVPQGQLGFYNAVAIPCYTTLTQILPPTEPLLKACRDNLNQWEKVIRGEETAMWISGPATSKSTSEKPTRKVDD
pIC50: −log10 of the molar value.
readout-type: pIC50

• COc1ccc2nc(Cl)c3cnc(C(C)C)n3c2n1 [Intermediate A14] = 6.63

---

readout-type: melting point

- CCCN1CC(C)=C(N(C)C)C2=C1N1CN(OC)C=C1C=N2: 93 to 95 °C
- CCN1CC(C)=C(NC2CCCC2)C2=C1N1CN(OC)C=C1C=N2: 93 to 95 °C
- CCCN1CC(C)=C(n2ccnn2)C2=C1N1CN(OC)C=C1C=N2: 218 to 220 °C
